molecular target: VARV ortholog of L1 (variola virus); assay: purified antigen ELISA
quantity_kind: EC50

A selection of reference data follows.
Any idea what EC50 was measured for MPXV-87 (antibody, V domains shown) V domain 1: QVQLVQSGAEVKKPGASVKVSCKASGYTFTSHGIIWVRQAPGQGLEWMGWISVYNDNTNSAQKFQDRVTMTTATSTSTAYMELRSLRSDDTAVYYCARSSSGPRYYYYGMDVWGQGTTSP V domain 2: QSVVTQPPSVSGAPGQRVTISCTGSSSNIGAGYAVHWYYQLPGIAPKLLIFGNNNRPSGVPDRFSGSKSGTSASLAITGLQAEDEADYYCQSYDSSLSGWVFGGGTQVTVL ?
0.3 µg/mL

What EC50 value was documented for this binder, VACV-33 (antibody, V domains shown) VH: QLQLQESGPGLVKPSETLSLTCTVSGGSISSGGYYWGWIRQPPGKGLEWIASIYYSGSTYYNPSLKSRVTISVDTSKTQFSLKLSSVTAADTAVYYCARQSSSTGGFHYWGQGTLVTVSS VL: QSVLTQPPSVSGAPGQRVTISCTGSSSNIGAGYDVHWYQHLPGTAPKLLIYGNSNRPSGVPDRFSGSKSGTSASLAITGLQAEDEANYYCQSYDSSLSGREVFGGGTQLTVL ?
0.02 µg/mL

Kindly review the next binder as well.
Bench note: what EC50 did MPXV-26 (antibody, V domains shown) VH: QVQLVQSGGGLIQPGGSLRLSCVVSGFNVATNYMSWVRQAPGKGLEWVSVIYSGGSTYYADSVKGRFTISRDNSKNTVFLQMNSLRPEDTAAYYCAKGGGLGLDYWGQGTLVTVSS VL: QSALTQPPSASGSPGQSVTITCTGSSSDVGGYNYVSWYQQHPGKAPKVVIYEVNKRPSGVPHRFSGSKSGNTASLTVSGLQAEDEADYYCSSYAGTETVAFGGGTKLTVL show?
0.02 µg/mL
